Measured selectivity ratio, listed per entry.
- Protocol: Selectivity index, ratio of CC50 for HEL299 cells to EC50 for Camelpox virus CML1 infected in HEL299 cells
- Type: toxicity, cell-based, HEL 299
- Measurement parameters: human, HEL299 cells; read-out: Ratio CC50/IC50

Answered examples (4):
Nc1ncnc2c1ncn2C[C@H]1COP(=O)(O)CO1: 393
Nc1ncnc2c1ncn2CCOCP(=O)(O)O: < 1
Nc1nc(Cl)c2ncn(CCOCP(=O)(O)O)c2n1: 1
Nc1nc(N)c2ncn(C[C@@H](CO)OCP(=O)(O)O)c2n1: 249

Quote selectivity ratio reported for C[C@@H](Cn1cnc2c(N)ncnc21)OCP(=O)(O)O please.
1

Quote selectivity ratio reported for Nc1nc(NC(CC(=O)O)C(=O)O)c2ncn(CCOCP(=O)(O)O)c2n1 (racemic) please.
0.4

Quote selectivity ratio reported for Nc1nc(NC(Cc2ccccc2)C(=O)O)c2ncn(CCOCP(=O)(O)O)c2n1 (racemic) please.
< 1

Quote selectivity ratio reported for Nc1nc(NCCP(=O)(O)O)c2ncn(CCOCP(=O)(O)O)c2n1 please.
< 0.3

Quote selectivity ratio reported for Nc1cc(OCCOCP(=O)(O)O)nc(N)n1 please.
< 0.3

Quote selectivity ratio reported for Nc1ccn(C[C@H]2COP(=O)(O)CO2)c(=O)n1 please.
55

Quote selectivity ratio reported for CN(C)c1ncnc2c1ncn2CCOCP(=O)(O)O please.
1

====

Measured CC50 at 96 h, listed per entry.
- Protocol: Cytotoxicity against HEL299 cells after 4 days by Z1 Coulter counting analysis
- Format: cell-based, HEL 299
- Measurement parameters: human, HEL299 cells
Note to self: number, then unit, no commentary.

Answered examples (3):
C[C@H](O)[C@H](Nc1nc(N)nc2c1ncn2CCOCP(=O)(O)O)C(=O)O: 56 µM
Nc1nc(NC(CC(=O)O)C(=O)O)c2ncn(CCOCP(=O)(O)O)c2n1 (racemic): 20 µM
C[C@@H](O)[C@H](Nc1nc(N)nc2c1ncn2CCOCP(=O)(O)O)C(=O)O: 39 µM

Quote CC50 at 96 h reported for Nc1nc(NCS(=O)(=O)O)c2ncn(CCOCP(=O)(O)O)c2n1 please.
2 µM

Quote CC50 at 96 h reported for Nc1ncnc(=O)n1C[C@H]1COP(=O)(O)CO1 please.
143 µM

Quote CC50 at 96 h reported for CC(C)(C)C(=O)OCOP(=O)(COC(CO)Cn1cnc(N)nc1=O)OCOC(=O)C(C)(C)C (stereo unspecified) please.
5 µM

Quote CC50 at 96 h reported for Nc1nc(Cl)c2ncn(CCOCP(=O)(O)O)c2n1 please.
8 µM

====

- Protocol: Selectivity index, ratio of CC50 for HEL299 cells to EC50 for Camelpox virus CML1 infected in HEL299 cells
- Assay type: toxicity, cell-based, HEL 299
- Measurement parameters: human, HEL299 cells; read-out: Ratio CC50/IC50
Measured selectivity ratio, listed per entry.
Lab note: write the figure by itself, no unit.

Answered examples (5):
Cc1nc(N)nc2c1ncn2CCOCP(=O)(O)O: 1
Nc1ccn(C[C@@H](CO)OCP(=O)(O)O)c(=O)n1.O.O: 23
CC(O)C(Nc1nc(N)nc2c1ncn2CCOCP(=O)(O)O)C(=O)O (racemic): 0.2
Nc1nc2c(ncn2CCOCP(=O)(O)O)c(=O)[nH]1: 0.3
C[C@H](COC1=CC(N)N(O)C(N)=N1)OCP(=O)(O)O (stereo not given in full): 99

Quote selectivity ratio reported for Nc1nc(N(CC(=O)O)CC(=O)O)c2ncn(CCOCP(=O)(O)O)c2n1 please.
1

Quote selectivity ratio reported for Nc1nc(NCS(=O)(=O)O)c2ncn(CCOCP(=O)(O)O)c2n1 please.
1

Quote selectivity ratio reported for CC(C)CC(Nc1nc(N)nc2c1ncn2CCOCP(=O)(O)O)C(=O)O (racemic) please.
0.2

====

Measured CC50 at 96 h, listed per entry.
- Protocol: Cytotoxicity against human PHK after 4 days by Z1 Coulter counting analysis
- Measurement parameters: PHK cells
Write the value in µM as a bare number.

NC1=NC(OC[C@@H]2CP(=O)(O)CO2)=CC(N)N1O (some centres not stated): 43
Nc1ccn(C[C@H]2COP(=O)(O)CO2)c(=O)n1: 17
Nc1ncnc2c1ncn2CCOCP(=O)(O)O: 76
Nc1nc(NC(CC(=O)O)C(=O)O)c2ncn(CCOCP(=O)(O)O)c2n1 (racemic): 16
Nc1nc(NC(CO)C(=O)O)c2ncn(CCOCP(=O)(O)O)c2n1 (racemic): 2

Quote CC50 at 96 h reported for Nc1nc(NCCC(=O)O)c2ncn(CCOCP(=O)(O)O)c2n1 please.
258

Quote CC50 at 96 h reported for CC(C)(C)C(=O)OCOP(=O)(COC(CO)Cn1cnc(N)nc1=O)OCOC(=O)C(C)(C)C (configuration not stated) please.
1

Quote CC50 at 96 h reported for C[C@H](COC1=CC(N)N(O)C(N)=N1)OCP(=O)(O)O (some centres not stated) please.
5

Quote CC50 at 96 h reported for Nc1nc(N)c2ncn(C[C@@H](CO)OCP(=O)(O)O)c2n1 please.
2

Quote CC50 at 96 h reported for Nc1nc(Cl)c2ncn(CCOCP(=O)(O)O)c2n1 please.
1

Quote CC50 at 96 h reported for Nc1nccc2c1ncn2C[C@@H](CO)OCP(=O)(O)O please.
0.3

Quote CC50 at 96 h reported for Nc1nc2c(ncn2CCOCP(=O)(O)O)c(=O)[nH]1 please.
0.3

====

- Protocol: Selectivity index, ratio of CC50 for human PHK to EC50 for Camelpox virus CML1 infected in human PHK
Experimental readout: Ratio CC50/IC50
Lab note: write the figure by itself, no unit.

Answered examples (2):
Nc1ncnc2c1ncn2CCOCP(=O)(O)O [ADEFOVIR]: 0.5
Nc1ncn(C[C@@H](CO)OCP(=O)(O)O)c(=O)n1: 5

Quote Ratio CC50/IC50 reported for Nc1ncnc2c1ncn2C[C@@H](CO)OCP(=O)(O)O please.
1

====

- System: Camelpox virus
- Protocol: Antiviral activity against Camelpox virus CML14 infected in human PHK assessed as reduction in viral titer after 6 days postinfection by virus yield reduction assay
- Assay type: functional
- Measurement parameters: CML14, 144 h
Experimental readout: EC99 (µM)
Write the value in µM as a bare number.

Nc1ncnc2c1ncn2C[C@@H](CO)OCP(=O)(O)O: 2
Nc1ncnc2c1ncn2C[C@H]1COP(=O)(O)CO1: 6
C[C@H](COC1=CC(N)N(O)C(N)=N1)OCP(=O)(O)O (some centres undefined): 9.5

Now take the following compound into account.
Quote EC99 reported for Nc1nc(N)c2ncn(C[C@@H](CO)OCP(=O)(O)O)c2n1 please.
2

====

- Protocol: Selectivity index, ratio of CC50 for HEL299 cells to EC50 for Camelpox virus CML14 infected in HEL299 cells
- Format: toxicity, cell-based, HEL 299
- Measurement parameters: human, HEL299 cells; read-out: Ratio CC50/IC50
Measured selectivity ratio, listed per entry.
Lab note: write the figure by itself, no unit.

Answered examples (3):
Nc1ncnc(=O)n1C[C@H]1COP(=O)(O)CO1: 48
NC1=NC(OC[C@@H]2CP(=O)(O)CO2)=CC(N)N1O (some centres undefined): 19
Nc1nc(NC(CC(=O)O)C(=O)O)c2ncn(CCOCP(=O)(O)O)c2n1 (racemic): 0.4

Quote selectivity ratio reported for CC(C)(C)C(=O)OCOP(=O)(COC(CO)Cn1cnc(N)nc1=O)OCOC(=O)C(C)(C)C (centres undefined) please.
250

Quote selectivity ratio reported for C[C@H](COC1=CC(N)N(O)C(N)=N1)OCP(=O)(O)O (some centres undefined) please.
82

Quote selectivity ratio reported for C[C@H](O)[C@H](Nc1nc(N)nc2c1ncn2CCOCP(=O)(O)O)C(=O)O please.
1

====

Measured CC50 at 96 h, listed per entry.
- Protocol: Cytotoxicity against HEL299 cells after 4 days by Z1 Coulter counting analysis
- Type: cell-based, HEL 299
- Measurement parameters: human, HEL299 cells
Write the value in µM as a bare number.

Nc1nc(N)c(Br)c(OCCOCP(=O)(O)O)n1: 52

Quote CC50 at 96 h reported for CC(C)CC(Nc1nc(N)nc2c1ncn2CCOCP(=O)(O)O)C(=O)O (racemic) please.
12

Quote CC50 at 96 h reported for Nc1nccc2c1ncn2C[C@@H](CO)OCP(=O)(O)O please.
30

Quote CC50 at 96 h reported for Nc1ncnc2c1ncn2C[C@@H](CO)OCP(=O)(O)O please.
32

====

- Protocol: Cytotoxicity against HEL299 cells after 4 days by Z1 Coulter counting analysis
- Format: cell-based, HEL 299
- Measurement parameters: human, HEL299 cells
Experimental readout: CC50 at 96 h (µM)
Write the value in µM as a bare number.

CN(C)c1ncnc2c1ncn2CCOCP(=O)(O)O: 22

Quote CC50 at 96 h reported for Nc1cc(OCCOCP(=O)(O)O)nc(N)n1 please.
66

Quote CC50 at 96 h reported for Nc1nc(N)c2ncn(CCOCP(=O)(O)O)c2n1 please.
100

Quote CC50 at 96 h reported for Nc1nc(NCCCC(=O)O)c2ncn(CCOCP(=O)(O)O)c2n1 please.
282
